These measurements were taken from ChEMBL document CHEMBL4145570.

test system: RAW264.7; experiment: Antiinflammatory activity in mouse RAW264.7 cells assessed as inhibition of LPS-induced NO production at 20 uM relative to control; format: functional
Would you mind labelling by inhibition at 20 µM? At or over 20% is 1 (yes), under is 0 (no).

[[record]]
molecule = "CC(C)=CCC/C(C)=C/C(=O)O[C@@H]1O[C@H](CO[C@@H]2O[C@@H](C)[C@H](O)[C@@H](O)[C@H]2O)[C@@H](O)[C@H](O)[C@H]1O"
target_system = "RAW264.7"
class_name = "1 (yes)"

[[record]]
molecule = "CC1=CC(=O)[C@H]2C[C@@]1(O[C@@H]1O[C@H](CO)[C@@H](O)[C@H](O)[C@H]1O)C2(C)COC(=O)c1ccccc1 (stereo partly specified)"
target_system = "RAW264.7"
class_name = "0 (no)"

[[record]]
molecule = "CC12C(=O)O[C@@]3(C)C[C@@H](O)[C@H]1C[C@]23O[C@@H]1O[C@H](COC(=O)c2ccccc2)[C@@H](O)[C@H](O)[C@H]1O"
target_system = "RAW264.7"
class_name = "1 (yes)"

[[record]]
molecule = "CC1=CC(=O)[C@H]2C[C@]1(O[C@@H]1O[C@H](COC(=O)c3ccccc3)[C@@H](O)[C@H](O)[C@H]1O)C2(C)CO (stereo partly specified)"
target_system = "RAW264.7"
class_name = "0 (no)"

[[record]]
molecule = "C[C@]12CC(=O)[C@H]3C[C@@]1(O[C@@H]1O[C@H](CO)[C@@H](O)[C@H](O)[C@H]1O)O[C@@H](O2)[C@H]3COC(=O)c1ccccc1"
target_system = "RAW264.7"
class_name = "1 (yes)"

[[record]]
molecule = "C=C[C@@](C)(O)CC/C=C(\\C)C(=O)OC[C@H]1O[C@@H](O[C@]23CC4C2(COC(=O)c2ccccc2)[C@H]2O[C@]4(O)C[C@]3(C)O2)[C@H](O)[C@@H](O)[C@@H]1O"
target_system = "RAW264.7"
class_name = "1 (yes)"

